biological target: T1, RBD derived from SARS-CoV-2 (Wuhan strain) (SARS-CoV-2 (Wuhan strain), UniProt P0DTC2 319-541); experiment: RBD beads, antibody 1 µg/mL, then labelled ACE2, flow cytometry
T1 construct: domain: RBD
Lab note: cut-off is 400. Strictly less in fluorescence of ACE2 protein is met. Exactly 400 or more is not met.

[[record]]
binder = "Ab354 (antibody, V domains shown) VH: QVQLVQSGAEVKKPGASVTVSCKASGFLFTGYYMHWVRQAPGQGLEWMGWINPNSGASNYTRKFQGRVTMTRDTSISATYMKLSRLTSDDTAVYYCARDLAFSMVRGALDYWGQGTLVTVSS VL: QLVLTQPPSASGSPGQSVTISCTGTSSDVGGYNYVSWYQHHPGKAPKLMIYEVSKRPSGVPDRFSGSKSGNTASLTVSGLQAEDEADYYCNSYAGNNNWVFGTGTKVTVL"
class = "met"

[[record]]
binder = "Ab326 (antibody, V domains shown) VH: EVQLVESGGGVVQPGRSLRLSCAASGFTFSHYPMHWVRQAPGRGLEWVAVISYDGSNQHYVDSVKGRFTISRDNSKNTLYLQMNSLRAEDTAVYFCASLITMIRGVPDYWGQGTLVTVSS VL: DIQMTQSPSSLSASVGDRVTITCRASQSISNYLNWYQQKPGKAPNLLIFAASSLQSGVPSRFSGSGSGTEFTLTISSLQPEDFAAYYCLQTYSTPRTFGQGTRLEIK"
class = "met"

[[record]]
binder = "Ab376 (antibody, V domains shown) VH: EVQLVESGGGLVQPGGSLRLSCEASEFTLNSHYMNWVRQAPGKGLEWVSVIYSSGSTYYADSVKGRFTISRHNSKDTLYLQMNSLKPEDTAVYYCARPNYGGNSIWYFDLWGRGTLVTVSS VL: DIQMTQSPSSVSASVGDRVTITCRASQGIGSWLAWYQQTPGKAPKLLIYAASSLQSGVPSRFSGSGSGTDFTLTISSLQPEDFATYYCQQANSFPLTFGGGTKVEIK"
class = "met"

[[record]]
binder = "Ab176 (antibody, V domains shown) VH: EVQLVESGGGLVQPGGSLRLSCAASGFTFSSYSMNWVRQAPGKGLEWVSYISGSSSTIYYADSVKGRFTISRDNAKNSLYLQMNSLRAEDTAVYYCVSSEWLLPRFFDYWGQGTLVTVSS VL: QPVLTQEASVSGTVGQKVTLSCTGNRNNIGSYPVGWYQQISHGAPKTVMFGNSPPSGIPDRFFGSRSGTTASLTISGLQPEDEADYYCSTWDYSLSAVVFGGGTKLTVL"
class = "not met"

[[record]]
binder = "Ab159 (antibody, V domains shown) VH: QVQLVESGGGLVKPGGSLRLSCAASGFTFNNAWMSWVRQAPGKGLEWVGRIKSKTDGGTTDYAAPVKGRFTFSRDDSKNTLYLQMSSLKTEDTALYYCTTADYDILTGTPASPYWGQGTLVTVSS VL: DIQMTQSPSSLSASVGDRVTITCRASQSITNYLNWYQQKPGKAPKFLIYAASSLQGGVPSRFRGSGSGTDFTLTISSLQPEDFATYYCQQTYSTLWTFGQGTKVEIK"
class = "met"

[[record]]
binder = "Ab114 (antibody, V domains shown) VH: EVQLVESGGGLIQPGGSLRLSCAASGFTVSSNYMNWVRQAPGKGLEWVSVIYSGGSTFYADSVKGRFTISRDNSKNTLYLQMNSLRVEDTAVYYCARDLDTQGGMDVWGQGTTVTVSS VL: EIVLTQSPGSLSLSPGERATLSCRASQGVSSSYLAWYQHKPGQAPRLLIFGASTRATGIPDRFSGSGSGTDFTLTISRLEPEDFAVYYCQLYGSSPGTFGQGTKLEIK"
class = "not met"

[[record]]
binder = "Ab302 (antibody, V domains shown) VH: EVQLVESGGGLVQPGGSLRLSCAASGVIVSRNYMTWVRQAPGKGLEWVSVIYSGGSTFYADSVKGRFTISRDNSKNTLYLQMNSLRAEDTAVYYCARDRGEDVFDIWGQGTMVTVSS VL: DIQLTQSPSSLSASVGDRVTITCRASQGISSYLAWYQQKPGKAPKLLIYAASTLQSGVPSRFSGSGSGTDFTLTISSLQPEDFATYYCQQLNSYPGYTFGQGTKLEIK"
class = "met"

[[record]]
binder = "Ab315 (antibody, V domains shown) VH: EVQLLESGGGLIQPGGSLRLSCAASGLIVSSNYMSWVRQAPGKGLEWVSVIYSGGSTYYADSVKGRFISSRDNSKNTLYLQMNSLRAEDTAVYYCARGELDLPYGMDVWGQGTTVTVSS VL: QAVVTQPPSVSAAPGQKVTISCSGSSSNIGNNYVSWYQQLPGTAPKLLICDTNKRPSGIPDRFSGSKSGTSATLGITGLQTGDEADYYCGTWDRSLSAGVFGGGTKLTVL"
class = "met"

[[record]]
binder = "Ab369 (antibody, V domains shown) VH: QVQLVQSGAEVKKPGASVKVSCKASGYTLTNRAIHWVRQAPGQRLEWMGWINAGKGNTKYSQKFQGRVTITRDTSASTAYMELSSLKSEDTAFYYCATGDGYNYGYDSWGQGTLVTVSS VL: NFMLTQPPSVSVAPGKTARISCGGTNIGSKSVHWYQQKPGQAPVLVVHDDSDRPSGIPERFSASNSGNTATLTISRVEAGDEADYYCQVWDSTSDLPEVVFGGGTKLTVL"
class = "not met"

[[record]]
binder = "Ab374 (antibody, V domains shown) VH: EVQLVESGGGLIQPGGSLRLSCVASGFTVSSNYLAWVRQAPGQGLEWVSLIYPGGSTFYADSVKGRFTISRGNSNNTLYLQLNSLRTEDTAVYYCASLYRRGGDSWGQGTLVTVSS VL: DIQMTQSPSSLSASVGDRVTITCQASQDIRNYLNWYQQKPGKAPKLLIYDASNLQTGVPSRFSGRGSGTDFTFTISSLQAEDIATYYCQQYDNLPITFGQGTRLEIK"
class = "not met"

